# Measurement target: Bcl-2-related protein A1 (Homo sapiens, UniProt Q16548)
# Sequence (Q16548 whole entry): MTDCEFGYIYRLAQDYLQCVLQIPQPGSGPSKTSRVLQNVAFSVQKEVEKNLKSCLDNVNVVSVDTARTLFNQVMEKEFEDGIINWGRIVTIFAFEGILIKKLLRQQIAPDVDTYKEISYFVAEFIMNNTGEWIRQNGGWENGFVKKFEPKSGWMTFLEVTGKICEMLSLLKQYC
# Experimental protocol: Inhibition of N-terminal FITC BH3 peptide binding to GST-tagged Bfl1 by fluorescence polarization assay
pIC50: −log10 of the molar value.
Respond with rule met for pIC50 values of 6 and above, rule not met for values below.

Exercise: Hello, I need to know if COc1ccccc1N1CCN(C2=C(Cl)C(=O)N(c3ccc(Cl)c(Cl)c3)C2=O)CC1 has measured pIC50 not below 6. Thanks!
Key: rule not met

Exercise: Hello, I need to know if O=C1C(Cl)=C(N2CCN(c3ccccc3)CC2)C(=O)N1c1ccc(Cl)c(Cl)c1 has measured pIC50 not below 6. Thanks!
Key: rule not met

Exercise: Hello, I need to know if CCN1CCN(C2=C(Cl)C(=O)N(c3ccc(Cl)c(Cl)c3)C2=O)CC1 has measured pIC50 not below 6. Thanks!
Key: rule not met

Exercise: Hello, I need to know if C[C@@H]1CN(C2=C(Cl)C(=O)N(c3ccc(Cl)c(Cl)c3)C2=O)CCN1 has measured pIC50 not below 6. Thanks!
Key: rule met

Exercise: Hello, I need to know if O=C1C(Cl)=C(NCc2ccccc2)C(=O)N1c1ccc(Cl)c(Cl)c1 has measured pIC50 not below 6. Thanks!
Key: rule not met

Exercise: Hello, I need to know if CN1CCN(C2CC(=O)N(c3ccc(Cl)c(Cl)c3)C2=O)CC1 (centres undefined) has measured pIC50 not below 6. Thanks!
Key: rule not met

Exercise: Hello, I need to know if CN1CCN(C2=C(Cl)C(=O)N(c3ccccc3Cl)C2=O)CC1 has measured pIC50 not below 6. Thanks!
Key: rule not met

Exercise: Hello, I need to know if C[C@H]1CN(C2=C(Cl)C(=O)N(c3ccc(Cl)c(Cl)c3)C2=O)CCN1 has measured pIC50 not below 6. Thanks!
Key: rule not met

Exercise: Hello, I need to know if CN(C)C1=C(Cl)C(=O)N(c2ccc(Cl)c(Cl)c2)C1=O has measured pIC50 not below 6. Thanks!
Key: rule met

Exercise: Hello, I need to know if O=C1C(Cl)=C(N2CCN(CCOCCO)CC2)C(=O)N1c1ccc(Cl)c(Cl)c1 has measured pIC50 not below 6. Thanks!
Key: rule met

Exercise: Hello, I need to know if O=C1C(Cl)=C(NCCO)C(=O)N1c1ccc(Cl)c(Cl)c1 has measured pIC50 not below 6. Thanks!
Key: rule not met

Exercise: Hello, I need to know if Cc1cccc(N2C(=O)C(Cl)=C(N3CCN(C)CC3)C2=O)c1 has measured pIC50 not below 6. Thanks!
Key: rule not met

Exercise: Hello, I need to know if CN1CCN(C2=CC(=O)N(c3ccc(Cl)cc3)C2=O)CC1 has measured pIC50 not below 6. Thanks!
Key: rule not met

Exercise: Hello, I need to know if CN1CCN(C2=C(Cl)C(=O)N(c3ccncc3Cl)C2=O)CC1 has measured pIC50 not below 6. Thanks!
Key: rule not met

Exercise: Hello, I need to know if O=C1C(Cl)=C(N2CCCC2)C(=O)N1c1ccc(Cl)c(Cl)c1 has measured pIC50 not below 6. Thanks!
Key: rule not met

Exercise: Hello, I need to know if O=C1C(Cl)=C(N2CCN(CCO)CC2)C(=O)N1c1ccc(Cl)c(Cl)c1 has measured pIC50 not below 6. Thanks!
Key: rule met

Exercise: Hello, I need to know if CCCCN1CCN(C2=C(Cl)C(=O)N(c3ccc(Cl)c(Cl)c3)C2=O)CC1 has measured pIC50 not below 6. Thanks!
Key: rule not met

###

# Measurement target: UniProt Q16548
# Experimental protocol: Inhibition of N-terminal FITC BH3 peptide binding to GST-tagged Bfl1 by fluorescence polarization assay
pIC50: −log10 of the molar value.
Respond with YES for pIC50 values of 6 and above, NO for values below.

Exercise: Hello, I need to know if O=C1C(Cl)=C(N2CCN(C/C=C/c3ccccc3)CC2)C(=O)N1c1ccc(Cl)c(Cl)c1 has measured pIC50 not below 6. Thanks!
Key: YES

Exercise: Hello, I need to know if CN1CCN(C2=C(Cl)C(=O)N(c3cccc([N+](=O)[O-])c3)C2=O)CC1 has measured pIC50 not below 6. Thanks!
Key: NO

Exercise: Hello, I need to know if CN1CCN(C2=C(Cl)C(=O)N(c3cccc(Cl)c3)C2=O)CC1 has measured pIC50 not below 6. Thanks!
Key: NO

Exercise: Hello, I need to know if CN1CCN(C2=C(Cl)C(=O)N(c3ccc(Cl)c(Cl)c3)C2=O)CC1 has measured pIC50 not below 6. Thanks!
Key: YES

Exercise: Hello, I need to know if Cc1cccc(N2CCN(C3=C(Cl)C(=O)N(c4ccc(Cl)c(Cl)c4)C3=O)CC2)c1 has measured pIC50 not below 6. Thanks!
Key: NO

Exercise: Hello, I need to know if O=C1C(Cl)=C(N2CCN(c3cccc(C(F)(F)F)c3)CC2)C(=O)N1c1ccc(Cl)c(Cl)c1 has measured pIC50 not below 6. Thanks!
Key: NO

Exercise: Hello, I need to know if O=C1C(Cl)=C(N2CCCCC2)C(=O)N1c1ccc(Cl)c(Cl)c1 has measured pIC50 not below 6. Thanks!
Key: NO

Exercise: Hello, I need to know if CN1CCN(C2=C(Cl)C(=O)N(c3cc(Cl)cc(Cl)c3)C2=O)CC1 has measured pIC50 not below 6. Thanks!
Key: NO

Exercise: Hello, I need to know if COc1ccc(N2CCN(C3=C(Cl)C(=O)N(c4ccc(Cl)c(Cl)c4)C3=O)CC2)cc1 has measured pIC50 not below 6. Thanks!
Key: NO

Exercise: Hello, I need to know if O=C1C(Cl)=C(N2CCN(Cc3ccccc3)CC2)C(=O)N1c1ccc(Cl)c(Cl)c1 has measured pIC50 not below 6. Thanks!
Key: NO

###

Record form. Attribute: pIC50. Fill in for each entry.
# Measurement target: Bcl-2-related protein A1 (Homo sapiens)
# Experimental protocol: Inhibition of N-terminal FITC BH3 peptide binding to GST-tagged Bfl1 by time resolved-FRET assay
// pIC50 is dimensionless: -log10 of concentration (M)

Exercise: Requested field: pIC50. Item: CN1CCN(C2=C(Cl)C(=O)N(c3ccncc3Cl)C2=O)CC1
Key: 4.45

Exercise: Requested field: pIC50. Item: C[C@@H]1CN(C2=C(Cl)C(=O)N(c3ccc(Cl)c(Cl)c3)C2=O)CCN1
Key: 6.10

Exercise: Requested field: pIC50. Item: COc1ccc(N2CCN(C3=C(Cl)C(=O)N(c4ccc(Cl)c(Cl)c4)C3=O)CC2)cc1
Key: 5.08

Exercise: Requested field: pIC50. Item: COc1cccc(N2CCN(C3=C(Cl)C(=O)N(c4ccc(Cl)c(Cl)c4)C3=O)CC2)c1
Key: 5.30

Exercise: Requested field: pIC50. Item: CN1CCN(C2=C(Cl)C(=O)N(c3cccc([N+](=O)[O-])c3)C2=O)CC1
Key: 5.41

###

# Measurement target: Bcl-2-related protein A1 (Homo sapiens, UniProt Q16548)
# Experimental protocol: Inhibition of N-terminal FITC BH3 peptide binding to GST-tagged Bfl1 by time resolved-FRET assay
Record form. Attribute: IC50. Fill in for each entry.
API: value field is a number in nM; no unit string.

Exercise: Requested field: IC50. Item: CN1CCN(C2=C(Cl)C(=O)N(c3ccc(Cl)c(Cl)c3)C2=O)CC1
Key: 800

Exercise: Requested field: IC50. Item: CN(C)C1=C(Cl)C(=O)N(c2ccc(Cl)c(Cl)c2)C1=O
Key: 400

Exercise: Requested field: IC50. Item: CN1CCN(C2=C(Cl)C(=O)N(c3cc(Cl)cc(Cl)c3)C2=O)CC1
Key: 1900

Exercise: Requested field: IC50. Item: Cc1cccc(N2C(=O)C(Cl)=C(N3CCN(C)CC3)C2=O)c1
Key: 10800

Exercise: Requested field: IC50. Item: Cc1cccc(N2CCN(C3=C(Cl)C(=O)N(c4ccc(Cl)c(Cl)c4)C3=O)CC2)c1
Key: 8300

Exercise: Requested field: IC50. Item: O=C1C(Cl)=C(N2CCN(Cc3ccccc3)CC2)C(=O)N1c1ccc(Cl)c(Cl)c1
Key: 1300

Exercise: Requested field: IC50. Item: CC1C(=O)NCCN1C1=C(Cl)C(=O)N(c2ccc(Cl)c(Cl)c2)C1=O (configuration not stated)
Key: 2000

###

# Measurement target: Bcl-2-related protein A1 (Homo sapiens, UniProt Q16548)
# Sequence (Q16548 whole entry): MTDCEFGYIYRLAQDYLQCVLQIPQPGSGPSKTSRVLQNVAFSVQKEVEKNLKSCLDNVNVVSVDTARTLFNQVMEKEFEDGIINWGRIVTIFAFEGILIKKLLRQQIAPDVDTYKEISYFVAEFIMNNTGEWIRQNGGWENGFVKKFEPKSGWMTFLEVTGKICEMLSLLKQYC
# Experimental protocol: Inhibition of N-terminal FITC BH3 peptide binding to GST-tagged Bfl1 by time resolved-FRET assay
Record form. Attribute: pIC50. Fill in for each entry.
// pIC50 is dimensionless: -log10 of concentration (M)

Exercise: Requested field: pIC50. Item: COc1ccccc1N1CCN(C2=C(Cl)C(=O)N(c3ccc(Cl)c(Cl)c3)C2=O)CC1
Key: 5.21

Exercise: Requested field: pIC50. Item: CN1CCN(C2=C(Cl)C(=O)N(c3cccc(Cl)c3)C2=O)CC1
Key: 5.92

Exercise: Requested field: pIC50. Item: CN1CCN(C2=C(Cl)C(=O)N(c3cccc(Cl)c3Cl)C2=O)CC1
Key: 5.59

Exercise: Requested field: pIC50. Item: O=C1C(Cl)=C(N2CCN(CCO)CC2)C(=O)N1c1ccc(Cl)c(Cl)c1
Key: 6.21

Exercise: Requested field: pIC50. Item: O=C1C(Cl)=C(N2CCN(CCOCCO)CC2)C(=O)N1c1ccc(Cl)c(Cl)c1
Key: 6.40

Exercise: Requested field: pIC50. Item: CN1CCN(C2=C(Cl)C(=O)N(c3ccc(Cl)cc3Cl)C2=O)CC1
Key: 5.85

Exercise: Requested field: pIC50. Item: CCCCN1CCN(C2=C(Cl)C(=O)N(c3ccc(Cl)c(Cl)c3)C2=O)CC1
Key: 5.48

Exercise: Requested field: pIC50. Item: O=C1C(Cl)=C(N2CCN(C/C=C/c3ccccc3)CC2)C(=O)N1c1ccc(Cl)c(Cl)c1
Key: 6.16

Exercise: Requested field: pIC50. Item: O=C1C(Cl)=C(N2CCN(Cc3ccc4c(c3)OCO4)CC2)C(=O)N1c1ccc(Cl)c(Cl)c1
Key: 5.68

Exercise: Requested field: pIC50. Item: O=C1C(Cl)=C(N2CCN(c3ccccc3)CC2)C(=O)N1c1ccc(Cl)c(Cl)c1
Key: 5.39

Exercise: Requested field: pIC50. Item: C[C@H]1CN(C2=C(Cl)C(=O)N(c3ccc(Cl)c(Cl)c3)C2=O)CCN1
Key: 5.96

Exercise: Requested field: pIC50. Item: CCN1CCN(C2=C(Cl)C(=O)N(c3ccc(Cl)c(Cl)c3)C2=O)CC1
Key: 6.00

Exercise: Requested field: pIC50. Item: O=C1C(Cl)=C(N2CCOCC2)C(=O)N1c1ccc(Cl)c(Cl)c1
Key: 6.35

Exercise: Requested field: pIC50. Item: CN1CCN(C2=C(Cl)C(=O)N(c3ccccc3Cl)C2=O)CC1
Key: 6.00
